# Test system: NCI/ADR-RES ovarian
# Test name: NCI-60 one-dose screen, 48 h (100 = growth as untreated, 0 = no growth, -100 = all killed)
# Experimental setup: 10 µM unless noted
About 83,000 compounds went through this panel and 20% of them were active in at least one assay; those are over-represented in the sample as a whole.
# growth per record follows
Hi! Could you send only the number? It should be in %, unit omitted.

Completed entries (count: 5):
CCCCCCCCc1ccc(OCCOCC[N+](C)(C)CC)cc1 (tested in a mixture with another compound) :: 107
Cc1ncc(C(=O)Nc2ccc(CN3CCN(C)CC3)c(C(F)(F)F)c2)cc1C#Cc1c(N)ncc2ccc(F)cc12 :: -29.7
CC1(C)N=C(N)N=C(N)N1c1cccc(CCCCOc2ccccc2)c1 :: 107
COc1cc(NC(=O)CSc2nc3ccc(Cl)cc3c(=O)n2-c2ccc(F)cc2)cc(OC)c1OC :: 81
CCC(C)CC(N)O (stereo not drawn) :: 109

Q: Return growth (reported value) for this molecule: O=C(/C=C/c1c[nH]c2ccccc12)c1cc2ccccc2o1
Ans: 99.9

Q: Return growth (reported value) for this molecule: CC(=O)CC(=O)OC/C=C(/C)CCC=C(C)C
Ans: 102

Q: Return growth (reported value) for this molecule: CC(=N\N=C(N)N)/C(=N/N=C(N)N)c1ccccc1
Ans: 90.2

Q: Return growth (reported value) for this molecule: CC(CCN1CCN(CCC(C)CC(C)(C)C)C1CC(C)CC(C)(C)C)CC(C)(C)C (stereo not drawn)
Ans: 98.3

Q: Return growth (reported value) for this molecule: O=C(Nc1ccc(Cl)c(Cl)c1)O/N=C\c1c(Cl)ccc([N+](=O)[O-])c1Cl
Ans: 16.5

Q: Return growth (reported value) for this molecule: COc1cc(-c2nn(-c3ccc(NC(=O)c4ccc(Cl)c(C(F)(F)F)c4)cc3)cc2-c2ccncc2)ccc1Cl
Ans: 30.7
